assay: Study 2: ascending repeated-dose pharmacokinetics in healthy volunteers; type: in vivo, human; details: both sexes, human, urine and plasma, oral, 10 mg, healthy adults, 10 mg once daily; Day 14 (N = 9); read-out: CLR(0-24), Geometric mean (CV) (converted)

- Structure Notation: "CC(C)(NC(=O)O[C@@H]1CN2CCC1CC2)c1csc(-c2ccc(F)cc2)n1"
  CL renal / mL/min: 23.3

* * *

assay: Study 2: ascending repeated-dose pharmacokinetics in healthy volunteers; type: in vivo, human; settings: both sexes, human, plasma, oral, 20 mg, healthy adults, 20 mg once daily; Day 14 (N = 9); read-out: Cmax, Geometric mean (CV)

- Structure Notation: "CC(C)(NC(=O)O[C@@H]1CN2CCC1CC2)c1csc(-c2ccc(F)cc2)n1"
  Unit Of Measure: "ng/mL"
  Cmax: 137

* * *

experiment: Study 2: ascending repeated-dose pharmacokinetics in healthy volunteers; assay type: in vivo, human; conditions: both sexes, human, plasma, oral, 5 mg, healthy adults, 5 mg once daily; Day 1 (N = 9); read-out: Cmax, Mean (SD)

- Compound: "CC(C)(NC(=O)O[C@@H]1CN2CCC1CC2)c1csc(-c2ccc(F)cc2)n1 [Compound 2]"
  Cmax: "18.5 ng/mL"

* * *

experiment: Study 2: ascending repeated-dose pharmacokinetics in healthy volunteers; assay type: in vivo, human; conditions: both sexes, human, plasma, oral, 20 mg, healthy adults, 20 mg once daily; Day 14 (N = 9); read-out: tmax, median (range)
Value Type: Tmax (h)

- Structure Notation: "CC(C)(NC(=O)O[C@@H]1CN2CCC1CC2)c1csc(-c2ccc(F)cc2)n1"
  Val: 3

* * *

assay: Study 2: ascending repeated-dose pharmacokinetics in healthy volunteers; format: in vivo, human; conditions: both sexes, human, plasma, oral, 5 mg, healthy adults, 5 mg once daily; Day 1 (N = 9); read-out: AUC0-24, Geometric mean (CV)

- Structure Notation: "CC(C)(NC(=O)O[C@@H]1CN2CCC1CC2)c1csc(-c2ccc(F)cc2)n1"
  AUC(0-t): "292 ng·h/mL"

* * *

experiment: Study 2: ascending repeated-dose pharmacokinetics in healthy volunteers; type: in vivo, human; conditions: both sexes, human, plasma, oral, 20 mg, healthy adults, 20 mg once daily; Day 14 (N = 9); read-out: AUC0-24, Geometric mean (CV)

- Compound: "CC(C)(NC(=O)O[C@@H]1CN2CCC1CC2)c1csc(-c2ccc(F)cc2)n1 [Compound 2]"
  AUC(0-t) [ng·h/mL]: 2340

The origin of these recorded values is patent US20220016092A1.
